# Test System: T1, NLpoly11S
# T1 chain: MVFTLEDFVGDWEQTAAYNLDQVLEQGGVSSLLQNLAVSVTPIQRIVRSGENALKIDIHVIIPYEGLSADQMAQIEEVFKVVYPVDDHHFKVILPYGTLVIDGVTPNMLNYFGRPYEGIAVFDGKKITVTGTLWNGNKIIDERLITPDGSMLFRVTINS
# Assay Overview: luminescence complementation titration, one-site specific binding
# Measurement Conditions: chains peptide; modification not given
Metric: pKd
Scale explanation: pKd corresponds to minus log10 of a concentration expressed in moles per litre.

Quick note, pKd for NVTGYRLFKKISN [NLpep79] landed at 7.88

All figures here come from patent US20200292534A1.
